// data source = paper PMC548150

- study-target: Q58-htn 1–171 amino terminal fragment (GST-Q58-Htn cleaved by thrombin) (Homo sapiens, UniProt P42858, INS38QQQQQQQQQQQQQQQQQQQQQQQQQQQQQQQQQQQQQ)
- Construct: the amino terminal fragment 1–171 of mutant huntingtin; GST (N, cleaved yes); made in house; host or cells: E. coli BL21 (pGEX-2TK vector)
- Sequence (P42858 with tags, fused parts or gaps with the stated changes limits assumed): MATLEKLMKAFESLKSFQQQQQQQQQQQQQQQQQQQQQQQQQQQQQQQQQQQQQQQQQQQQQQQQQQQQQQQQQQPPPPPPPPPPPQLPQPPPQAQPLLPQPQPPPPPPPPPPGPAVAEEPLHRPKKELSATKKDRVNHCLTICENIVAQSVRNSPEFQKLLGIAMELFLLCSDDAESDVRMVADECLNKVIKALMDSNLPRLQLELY
- test-description: in vitro aggregation of amino-terminal mutant huntingtin fragment (filter retardation dot blot)
- Type: biochemical
- test-conditions: GST-Q58-Htn 20 μg/ml pre-incubated with thrombin, 24 h room temperature; average of at least two independent experiments; read-out: IC50 (half-maximal inhibition) of Q58-Htn aggregation
Reported IC50 is given for each of the following compounds.
observable: IC50 (µM)

[
  {
    "compound": "C=C1c2c(Cl)ccc(O)c2C(=O)C2=C(O)[C@]3(O)C(=O)C(C(N)=O)=C(O)[C@@H](N(C)C)[C@@H]3[C@@H](O)[C@H]12 [Meclocycline sulfosalicylate]",
    "observable": "IC50",
    "reading-unit": "µM",
    "value": 14.8
  },
  {
    "compound": "CN(C)c1ccc(O)c2c1C[C@H]1C[C@H]3[C@H](N(C)C)C(O)=C(C(N)=O)C(=O)[C@@]3(O)C(O)=C1C2=O",
    "observable": "IC50",
    "reading-unit": "µM",
    "value": 43
  },
  {
    "compound": "N=C1C=CC(=C(c2ccc(N)cc2)c2ccc(N)cc2)C=C1 [Pararosaniline pamoate]",
    "observable": "IC50",
    "reading-unit": "µM",
    "value": 14.9
  }
]
